# SYSTEM UNDER TEST: Tryptase (Homo sapiens) (UniProt Q9BZJ3+Q15661+Q9NRR2)
# METHOD SUMMARY: Inhibition of mast cell tryptase
# Type: protein assay
Task for the reader: assign each of the following molecules its reported kobs/[I] (second-order inhibition rate constant).
One number for each entry, in M⁻¹ s⁻¹.

Take a look at these entries with their results.
- MOLECULE: "N=C(N)c1ccc(C(NC(=O)CCC(=O)O)P(=O)(Oc2ccccc2)Oc2ccccc2)cc1 (stereo not drawn)"
  MEASURED NUMBER: 0.2
- MOLECULE: "CC(C)C[C@H](NC(=O)OCc1ccccc1)C(=O)NC(c1ccc(C(=N)N)cc1)P(=O)(Oc1ccccc1)Oc1ccccc1 (stereo partly drawn)"
  MEASURED NUMBER: 0.3

Could you now consider this next molecule?
Determine reported kobs/[I] (second-order inhibition rate constant) for N=C(N)c1ccc(C(NC(=O)[C@@H]2CCCN2C(=O)OCc2ccccc2)P(=O)(Oc2ccccc2)Oc2ccccc2)cc1 (stereo partly drawn) ; test system: Tryptase (Homo sapiens) (UniProt Q9BZJ3+Q15661+Q9NRR2).
1.2
